The values you see were collected from ChEMBL document CHEMBL3433997.

So I've got a bunch of compounds here, and I need their inhibition values.
molecular target: Solute carrier family 2, facilitated glucose transporter member 1 (Homo sapiens); assay: ST_JUDE_LEISH: Cytotoxicity at 2uM final concentration against transgenic Leishmania Mexicana promastigotes LmGLUT1 that are glucose transport deficient and complemented with the human glucose transporter GLUT1. Activity is measured by DNA content using SYBR green in vitro; type: functional
Provide the reading as a plain figure in %.

Entry CCCOC(=O)C1=C(C)NC2=C(C(=O)CC(c3ccc(OC)c(OC)c3)C2)C1c1cccc(O)c1 (configuration not stated) : reported inhibition = ?
8.78

Follow-up entry: Cc1cccc2nc(-c3ccc(-c4cccc(CN5CCC(C(N)=O)CC5)c4)s3)[nH]c12
-1.68

Another compound to check: CC(=O)N1CCC(C(=O)Nc2ccc(-c3cccc(-c4nc5cc(C(F)(F)F)ccc5[nH]4)c3)cc2)CC1
0.57

Note, next up: Cc1[nH]c(C)c(-c2ccc(/C=C/c3ccccn3)cc2)c(=O)c1Cl
4.28

Now the same for COc1ccc(NC(=O)[C@H](CC(C)C)Nc2cc(C)nc(NCCc3ccccc3)n2)cc1
3.57

// repeat for CN1CCN(CC(=O)Nc2ccc(-c3ccc(-c4nc5cc(C(F)(F)F)ccc5[nH]4)s3)cc2)CC1 and report
-0.05

Entry to check: CCNC(=O)N1CCc2ccc(Oc3nc(NCc4ccccc4OC)ncc3C)cc2CC1
5.14

What do we get for CC[C@H](C)CNC(=O)c1cncc(-c2ccc(CNCCOc3ccccc3)cc2)c1 ?
1.83

Further, for CC(C)(C)c1nn(-c2ccccc2)c2[nH]c(=O)c(CNC3CCCC3)cc12 ?
3.76

Field entry: COc1ccc(Nc2ncc3c(-c4ccc(NC(=O)c5cccc(C(F)(F)F)c5)cc4)c[nH]c3n2)cc1OC
0.57

Next entry: O=C(NC1CC1)C1CCN(Cc2cc3ccccc3n2Cc2ccc(Cl)cc2)CC1
-2.52

Again, but for CCOc1ccc(-c2noc(-c3c[nH]c4ccccc4c3=O)n2)cc1
1.69

COc1cc(-c2ccc3c(-c4ccc(C(=O)N5CCN(C)CC5)cc4)n[nH]c3n2)cc(OC)c1OC ?
0.99

Try this compound too: COc1ccc2nccc([C@@H](O)CN3CCC(NCc4ccc5c(c4)nnn5C(C)C)CC3)c2c1
18.3

Now the same for COc1cccc(C(=O)Nc2ccc(Nc3nc(C)cc(N4CCCCC4)n3)cc2)c1OC
1.99

Also, COc1ccc(CC(=O)NC(CCN2CCC3(CCc4ccccc43)CC2)c2ccc(Cl)c(Cl)c2)cc1 (configuration not stated) please.
0.25

Then N#Cc1cc(N(CCCOc2cccc(OC(F)(F)F)c2)Cc2ccccc2C(F)(F)F)ccc1C(F)(F)F ?
-0.77

Same for COc1ccc2nccc([C@@H](O)CN3CCC(NCc4nc5cc(F)cc(F)c5[nH]4)CC3)c2c1
3.31

Quick one: CCNc1cc(C)nc(Nc2ccc(NS(=O)(=O)c3cc(OC)ccc3OC)cc2)n1
16.8

Thanks! And Cc1ccc(-c2nc(N3CCN(C(=O)c4ccco4)CC3)c3ccc(Cl)cc3n2)cc1 ?
1.17

Repeat for the following compound: COc1cc(OC)cc(-c2nn(-c3ccc([N+](=O)[O-])cc3C#N)c(=S)n2CC2CCCO2)c1 (configuration not stated)
2.04

Same lookup for CCn1c(Sc2ccc(C#N)c([N+](=O)[O-])c2)nnc1-c1cc(OC)cc(OC)c1 , please.
1.62

And the next one, C#CCN(Cc1ccc2[nH]c(N)nc(=O)c2c1)c1ccc(C(=O)N[C@@H](CCC(=O)O)C(=O)O)cc1 ?
4.21

Proceed to COc1ccc2nccc([C@@H](O)CN3CCC(NCc4cc5cc(Cl)ccc5[nH]4)CC3)c2c1
12.5

What do you get for CCCCCCCN1CC[C@@H](C[C@H](N)Cc2ccnc3ccc(OC)cc23)[C@@H](CC)C1 ?
0.24

What about Fc1cc(Cl)ccc1Nc1ccnc2cc(-c3scnc3CNCCN3CCOCC3)ccc12 ?
2.02

# repeat for CS(=O)(=O)NCCCNCc1cccc(-c2ccc(-c3nc4cc(C(F)(F)F)ccc4[nH]3)s2)c1
1.55

Same thing, different compound: COC(=O)c1ccc(CN2CCC(N(Cc3cccc(Oc4ccccc4)c3)S(=O)(=O)c3ccc(NC(C)=O)cc3)CC2)cc1
0.23

Then what about the compound CN1CCN(c2ccc(-c3cccc(NC(=O)c4cccc([N+](=O)[O-])c4)c3)nn2)CC1 ?
3.29

Here is the next compound: Clc1ccc2nnc(-c3c(Cl)cccc3Cl)n2n1
6.63

Cc1cccc2nc(-c3cccc(-c4ccc(NC(=O)Cc5c[nH]cn5)cc4)c3)[nH]c12 ?
-1.66

Would you mind doing N#Cc1ccc(CN2CCC(Oc3ccc(NC(=O)c4ccco4)cc3Cl)C2)cc1 (configuration not stated) as well?
3.53

Now this one: O=C(NCCCCN1CCC2c3cccc(O)c3CCC21)c1ccc(-c2ccccc2)cc1 (configuration not stated)
6.05

// query: Cc1noc(C)c1CN1Cc2ccccc2OC2(CCN(Cc3c[nH]c4cnccc34)CC2)C1
-0.38

Another compound to look at: CC1CCCCN1S(=O)(=O)c1ccc(NC(=O)c2cc(-c3ccccc3O)n[nH]2)cc1 (configuration not stated)
1.2

Same thing, different compound: COc1cc(C(=O)NCCCN2CCN(c3cc(Cl)ccc3OC)CC2)ccc1-c1nc2cc(Cl)c(Cl)cc2[nH]1
6.79

And then CC(C)(C)[C@@H](Nc1ccc(C#N)c2ccccc12)C(=O)NC1(Cc2ccc(O)cc2)CCCC1 , what is it?
0.1
